- assayed-system: T1, IFN-α4a (human, UniProt P05014 24-189)
- T1 construct: also called IFN-αM1
- test-description: ProteOn, one antigen concentration
metric: Kd (nM)
Respond numerically; units are nM and should not be typed.

Worked cases, Kd given:
binder | Kd, nM
IFWM3350 (antibody, V domains shown, VH IFWH624, VL IFWL1009; converted mAb; also called IFWB3085) VH: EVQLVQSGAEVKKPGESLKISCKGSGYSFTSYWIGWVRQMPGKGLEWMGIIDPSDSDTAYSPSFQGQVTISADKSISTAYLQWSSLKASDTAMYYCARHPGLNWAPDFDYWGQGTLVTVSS VL: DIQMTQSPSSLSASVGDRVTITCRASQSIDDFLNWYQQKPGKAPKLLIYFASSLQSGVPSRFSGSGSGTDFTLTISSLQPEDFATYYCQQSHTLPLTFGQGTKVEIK | 0.161
IFWM3317 (antibody, V domains shown, VH IFWH591, VL IFWL1026; converted mAb; also called IFWB3052) VH: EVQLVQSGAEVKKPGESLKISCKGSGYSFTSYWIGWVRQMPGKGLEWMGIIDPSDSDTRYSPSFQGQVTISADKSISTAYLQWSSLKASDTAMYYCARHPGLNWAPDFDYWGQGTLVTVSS VL: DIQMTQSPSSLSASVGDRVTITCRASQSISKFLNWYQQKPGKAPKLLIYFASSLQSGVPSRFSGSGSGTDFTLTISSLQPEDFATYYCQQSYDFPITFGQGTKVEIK | 0.37
IFWM3319 (antibody, V domains shown, VH IFWH591, VL IFWL1041; converted mAb; also called IFWB3054) VH: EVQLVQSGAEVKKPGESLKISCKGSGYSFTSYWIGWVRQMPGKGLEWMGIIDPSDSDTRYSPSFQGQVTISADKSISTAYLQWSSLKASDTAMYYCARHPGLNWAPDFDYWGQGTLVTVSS VL: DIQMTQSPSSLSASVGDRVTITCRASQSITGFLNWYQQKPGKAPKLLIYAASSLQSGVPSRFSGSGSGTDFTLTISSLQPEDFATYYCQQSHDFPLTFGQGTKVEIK | 0.274
IFWM3348 (antibody, V domains shown, VH IFWH624, VL IFWL1006; converted mAb; also called IFWB3083) VH: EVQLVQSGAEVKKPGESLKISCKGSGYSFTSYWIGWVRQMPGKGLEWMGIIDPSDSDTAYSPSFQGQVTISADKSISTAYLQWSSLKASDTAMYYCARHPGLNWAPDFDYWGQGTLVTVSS VL: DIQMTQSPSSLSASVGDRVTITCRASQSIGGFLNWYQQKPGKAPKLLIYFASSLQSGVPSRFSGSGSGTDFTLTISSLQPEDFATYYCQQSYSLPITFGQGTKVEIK | 0.089

Now for a further binder.
In: Which Kd reading was recorded for the binder IFWM3320 (antibody, V domains shown, VH IFWH591, VL IFWL1047; converted mAb; also called IFWB3055) VH: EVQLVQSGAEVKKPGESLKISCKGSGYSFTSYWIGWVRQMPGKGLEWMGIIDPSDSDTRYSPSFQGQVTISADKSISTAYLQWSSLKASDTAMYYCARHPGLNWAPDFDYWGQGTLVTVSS VL: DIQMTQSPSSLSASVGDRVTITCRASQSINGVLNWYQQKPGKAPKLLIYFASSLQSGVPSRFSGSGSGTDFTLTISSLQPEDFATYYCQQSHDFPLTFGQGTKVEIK ?
Out: 0.089
